// reported IC50 per item
# targetOfAssay: Sodium-dependent serotonin transporter (Rattus norvegicus, UniProt P31652)
# Sequence (P31652 whole entry): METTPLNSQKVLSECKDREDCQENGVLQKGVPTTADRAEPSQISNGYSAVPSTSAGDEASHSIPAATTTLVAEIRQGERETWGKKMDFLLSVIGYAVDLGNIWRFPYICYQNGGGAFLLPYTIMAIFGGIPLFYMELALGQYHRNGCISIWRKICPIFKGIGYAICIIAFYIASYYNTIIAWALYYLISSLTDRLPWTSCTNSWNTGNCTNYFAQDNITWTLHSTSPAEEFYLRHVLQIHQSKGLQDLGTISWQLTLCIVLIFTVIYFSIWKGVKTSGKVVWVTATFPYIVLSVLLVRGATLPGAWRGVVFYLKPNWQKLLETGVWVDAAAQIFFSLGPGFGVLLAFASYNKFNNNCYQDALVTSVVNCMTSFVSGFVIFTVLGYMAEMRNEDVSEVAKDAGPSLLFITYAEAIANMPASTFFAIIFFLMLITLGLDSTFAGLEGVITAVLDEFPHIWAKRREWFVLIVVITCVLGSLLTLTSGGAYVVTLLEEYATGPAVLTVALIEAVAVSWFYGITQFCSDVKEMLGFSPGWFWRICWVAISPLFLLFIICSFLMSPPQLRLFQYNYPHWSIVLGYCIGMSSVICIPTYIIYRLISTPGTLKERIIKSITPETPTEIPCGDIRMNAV
# assayOverview: Binding affinity at the serotonin transporter using [125I]RTI-55 in rat caudate membranes.
# Assay type: cell membranes
observable: IC50

{"columns": ["structureNotation", "targetOfAssay", "observable", "experimentalValue"],
 "data": [
  ["c1ccc(C(OCCN2CCN(Cc3ccc4ncccc4c3)CC2)c2ccccc2)cc1", "Sodium-dependent serotonin transporter (Rattus norvegicus, UniProt P31652)", "IC50", "845 nM"],
  ["C(=C\\c1cccs1)/CN1CCN(CCOC(c2ccccc2)c2ccccc2)CC1", "Sodium-dependent serotonin transporter (Rattus norvegicus, UniProt P31652)", "IC50", "1170 nM"],
  ["c1ccc(C(OCCN2CCN(CCCc3ccco3)CC2)c2ccccc2)cc1", "Sodium-dependent serotonin transporter (Rattus norvegicus, UniProt P31652)", "IC50", "1520 nM"],
  ["c1ccc(C(OCCN2CCN(Cc3cc4ccccc4[nH]3)CC2)c2ccccc2)cc1", "Sodium-dependent serotonin transporter (Rattus norvegicus, UniProt P31652)", "IC50", "668 nM"]
]}

Taken from ChEMBL document CHEMBL1129953.
